STUDY_TARGET: Muscarinic acetylcholine receptor M3 (Cavia porcellus, UniProt Q8VH26)
Sequence (Q8VH26 whole entry): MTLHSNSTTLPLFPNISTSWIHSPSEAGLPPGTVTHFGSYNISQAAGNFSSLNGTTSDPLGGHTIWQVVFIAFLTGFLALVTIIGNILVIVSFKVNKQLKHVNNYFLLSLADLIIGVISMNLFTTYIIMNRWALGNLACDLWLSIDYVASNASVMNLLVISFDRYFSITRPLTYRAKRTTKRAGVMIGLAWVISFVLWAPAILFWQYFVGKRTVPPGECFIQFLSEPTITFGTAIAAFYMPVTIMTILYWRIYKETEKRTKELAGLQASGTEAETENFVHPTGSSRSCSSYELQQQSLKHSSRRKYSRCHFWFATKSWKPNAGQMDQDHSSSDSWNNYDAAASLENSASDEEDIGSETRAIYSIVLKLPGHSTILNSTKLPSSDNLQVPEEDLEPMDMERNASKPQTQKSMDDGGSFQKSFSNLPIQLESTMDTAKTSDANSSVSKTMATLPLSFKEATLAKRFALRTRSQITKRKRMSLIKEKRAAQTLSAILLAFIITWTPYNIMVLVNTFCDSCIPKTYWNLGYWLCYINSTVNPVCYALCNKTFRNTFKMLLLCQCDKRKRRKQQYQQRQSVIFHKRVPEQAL
TEST_DESCRIPTION: Compound was evaluated for its binding affinity against muscarinic acetylcholine receptor M3 n guinea pig parotid gland using (-)-[3H]-QNB as radioligand
Type: tissue-based
MEASUREMENT_LABEL: Ki
Enter the number, and then the unit.

Entry CC1(C)OCC2(CN3CCC2CC3)O1 (stereo unspecified) , Ki reported as 39 µM

* * *

Measured Ki, listed per entry.
STUDY_TARGET: Muscarinic acetylcholine receptor M3 (Cavia porcellus)
TEST_DESCRIPTION: Compound was evaluated for its binding affinity against muscarinic acetylcholine receptor M3 in guinea pig parotid gland using (-)-[3H]-QNB as radioligand
Assay type: tissue-based
Please give a number only; it is taken to be in µM.

Examples with their reported Ki follow.
COMPOUND: C[C@H]1OC[C@@]2(CN3CCC2CC3)O1
STUDY_TARGET: Muscarinic acetylcholine receptor M3 (Cavia porcellus)
U: µM
Ki: 15

COMPOUND: C[C@@H]1OC[C@@]2(CN3CCC2CC3)O1
STUDY_TARGET: Muscarinic acetylcholine receptor M3 (Cavia porcellus)
U: µM
Ki: 25

COMPOUND: C[C@H]1CC[C@@]2(CN3CCC2CC3)O1
STUDY_TARGET: Muscarinic acetylcholine receptor M3 (Cavia porcellus)
U: µM
Ki: 35

COMPOUND: C1OCC2(CN3CCC2CC3)O1 (stereo not given)
STUDY_TARGET: Muscarinic acetylcholine receptor M3 (Cavia porcellus)
U: µM
Ki: 86

Next compound, Ki to be filled in.
Entry `C[C@@H]1C[C@@]2(CO1)CN1CCC2CC1` , Ki reported as 33
